testedOn: PPARα (UniProt Q4PNY3)
procedureDetails: PPAR receptor transactivation assay
Assay type: cell-based
conditionInfo: Monkey PPARα
quantity: EC50

## Input EC50 for Cc1cc(OC/C=C(/c2ccc(F)cc2)c2ccc(C#CCN3CCOCC3)cc2)ccc1OCC(=O)O ?
## Output > 1000 nM

----------
procedureDetails: Stability of solid state forms (storage, drying), XRPD
Format: physicochemical
conditionInfo: 40° C./75% RH/7 days
quantity: XRPD form after storage

1. Cc1cc(OC/C=C(/c2ccc(F)cc2)c2ccc(C#CCN3CCOCC3)cc2)ccc1OCC(=O)[O-].[Na+] [Form 3] | Form 1
2. Cc1cc(OC/C=C(/c2ccc(F)cc2)c2ccc(C#CCN3CCOCC3)cc2)ccc1OCC(=O)[O-].[Na+] [Form 4] | Form 1
